A collection of compounds and their measured pIC50
# targetOfAssay: EGFR (T790M/L858R) (Homo sapiens, UniProt P00533, L858R/T790M)
# Sequence (P00533 25-1210 T790M/L858R): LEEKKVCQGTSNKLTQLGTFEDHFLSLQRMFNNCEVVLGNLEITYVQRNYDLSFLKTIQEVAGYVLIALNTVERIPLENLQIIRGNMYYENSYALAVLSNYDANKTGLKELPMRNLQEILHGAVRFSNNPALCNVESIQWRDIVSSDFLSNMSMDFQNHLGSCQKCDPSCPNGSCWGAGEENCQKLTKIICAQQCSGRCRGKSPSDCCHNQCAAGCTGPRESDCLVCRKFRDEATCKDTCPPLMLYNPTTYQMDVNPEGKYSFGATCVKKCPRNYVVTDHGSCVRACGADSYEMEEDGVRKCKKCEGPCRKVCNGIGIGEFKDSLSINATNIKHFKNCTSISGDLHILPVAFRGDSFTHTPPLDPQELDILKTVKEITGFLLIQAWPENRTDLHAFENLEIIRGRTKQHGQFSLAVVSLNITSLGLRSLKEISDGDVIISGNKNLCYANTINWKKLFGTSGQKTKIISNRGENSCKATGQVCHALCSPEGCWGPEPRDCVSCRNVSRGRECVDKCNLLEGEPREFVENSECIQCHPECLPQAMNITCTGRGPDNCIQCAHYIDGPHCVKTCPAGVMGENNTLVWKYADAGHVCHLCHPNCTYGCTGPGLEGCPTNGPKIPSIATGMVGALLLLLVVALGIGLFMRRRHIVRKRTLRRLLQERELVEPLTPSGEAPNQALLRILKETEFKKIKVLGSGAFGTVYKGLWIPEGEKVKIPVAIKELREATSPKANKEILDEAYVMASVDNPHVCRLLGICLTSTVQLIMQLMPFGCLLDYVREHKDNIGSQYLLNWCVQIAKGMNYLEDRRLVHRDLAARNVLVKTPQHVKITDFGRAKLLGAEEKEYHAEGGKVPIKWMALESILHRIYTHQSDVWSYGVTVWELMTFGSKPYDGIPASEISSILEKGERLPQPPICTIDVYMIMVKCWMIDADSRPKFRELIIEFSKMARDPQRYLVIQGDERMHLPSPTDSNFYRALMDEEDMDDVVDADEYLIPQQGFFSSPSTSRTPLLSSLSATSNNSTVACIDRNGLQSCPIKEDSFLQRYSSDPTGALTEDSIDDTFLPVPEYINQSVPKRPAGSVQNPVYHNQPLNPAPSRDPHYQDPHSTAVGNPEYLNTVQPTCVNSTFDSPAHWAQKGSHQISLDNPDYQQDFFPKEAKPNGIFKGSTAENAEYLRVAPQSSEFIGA
# assayText: Omnia continuous-read kinase assay, EGFR (T790M/L858R)
# testParameters: read-out: EGFR (T790M/L858R) inhibiton
pIC50: −log10 of the molar value.

Observe how each entry below is paired with its result.
[in] Which value of pIC50 has been reported for `C=CC(=O)Nc1cccc(Nc2cc(Nc3ccc(Oc4ccccc4)cc3)ncn2)n1` in the records?
[out] ≥ 8.00

[in] Another compound: `CC(=O)N1CCN(C/C=C/C(=O)Nc2cccc(Nc3cc(Nc4cccc(C)c4)ncn3)c2)CC1`
[out] 6.00 to 7.00

[in] Try this compound too: `C=CC(=O)Nc1cccc(Nc2cc(Nc3ccc(Oc4ccccc4)cc3)ncn2)c1`
[out] 7.00 to 8.00

// moving on: another record for pIC50
[in] Which value of pIC50 has been reported for `C/C=C/C(=O)Nc1cccc(Nc2cc(Nc3cccc(Br)c3)ncn2)c1` in the records?
[out] 5.00 to 6.00

====

Attribute: IC50
# targetOfAssay: EGFR (T790M/L858R) (Homo sapiens, UniProt P00533, L858R/T790M)
# assayText: Omnia continuous-read kinase assay, EGFR (T790M/L858R)
# testParameters: read-out: EGFR (T790M/L858R) inhibiton

[in] Please look up its IC50: C=CC(=O)Nc1cccc(Nc2cc(N(C)c3ccccc3)ncn2)c1 [I-15]
[out] 0.01 to 0.1 µM

[in] COc1ccc(NC(=O)/C=C/CN(C)C)cc1Nc1cc(Nc2ccc(F)c(Cl)c2)ncn1 [I-59] ?
[out] ≤ 0.01 µM

More entries:
[in] # get_value(readout='IC50', item= C=CC(=O)Nc1cccc(Nc2cc(Nc3cccc(Br)c3)ncn2)c1 [I-1] )
[out] ≤ 0.01 µM

====

# targetOfAssay: BTK (Homo sapiens)
pIC50: −log10 of the molar value.
recordedMetric: pIC50

[in] Return reported pIC50; argument: C=CC(=O)Nc1cccc(Nc2cc(Oc3ccc4c(c3)OCCO4)ncn2)n1 [I-95]
[out] ≥ 8.00

[in] // repeat for CC(=O)N1CCN(C/C=C/C(=O)Nc2cccc(Nc3cc(Nc4cccc(C)c4)ncn3)c2)CC1 [I-60] and report
[out] 5.00 to 6.00

====

In what follows, each item is paired with its IC50 for BTK (Homo sapiens).

[in] Entry under review: `O=C(CCl)Nc1cccc(Nc2cc(Oc3ccc(NC(=O)Nc4ccc(Cl)c(C(F)(F)F)c4)cc3)ncn2)c1` . Reported IC50?
[out] 100 to 1000 nM

[in] Another compound to check: `CN(C)C/C=C/C(=O)N(C)c1cccc(Nc2cc(Nc3ccc(F)c(Cl)c3)ncn2)c1`
[out] 10 to 100 nM

====

# targetOfAssay: BTK (Homo sapiens)
Reported IC50 values are given for each entry in this list.

[in] I would be grateful if you could share the reported IC50 for `C=CC(=O)Nc1cccc(Nc2cc(Sc3ccc(Oc4ccccc4)cc3)ncn2)c1` .
[out] 100 to 1000 nM

====

Please consider the recorded IC50 for BTK (Homo sapiens, UniProt Q06187) in what follows.

[in] Fill blank: measured IC50 of the compound CC(Cl)C(=O)Nc1cccc(Nc2cc(Nc3ccc(F)c(Cl)c3)ncn2)c1 (stereo not shown) is ____.
[out] 1000 to 10000 nM

====

# targetOfAssay: BTK (Homo sapiens, UniProt Q06187)
# Sequence (Q06187 whole entry): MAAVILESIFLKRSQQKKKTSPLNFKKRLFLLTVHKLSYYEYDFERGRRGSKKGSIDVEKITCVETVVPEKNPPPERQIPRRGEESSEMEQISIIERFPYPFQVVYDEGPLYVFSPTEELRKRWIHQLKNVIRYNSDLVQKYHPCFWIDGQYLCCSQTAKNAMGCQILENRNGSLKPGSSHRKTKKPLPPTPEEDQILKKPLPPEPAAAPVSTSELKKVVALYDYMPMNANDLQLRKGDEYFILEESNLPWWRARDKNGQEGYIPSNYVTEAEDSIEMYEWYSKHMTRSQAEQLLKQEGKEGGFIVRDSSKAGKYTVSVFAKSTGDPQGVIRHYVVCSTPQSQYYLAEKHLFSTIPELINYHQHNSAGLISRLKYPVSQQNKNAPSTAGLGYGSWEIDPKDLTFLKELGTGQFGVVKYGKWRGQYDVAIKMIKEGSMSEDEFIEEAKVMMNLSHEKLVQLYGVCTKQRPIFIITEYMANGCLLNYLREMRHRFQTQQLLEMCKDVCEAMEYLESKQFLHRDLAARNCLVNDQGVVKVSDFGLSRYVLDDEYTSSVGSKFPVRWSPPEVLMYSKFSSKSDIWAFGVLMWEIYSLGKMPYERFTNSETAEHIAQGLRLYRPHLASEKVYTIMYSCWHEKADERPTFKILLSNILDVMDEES
pIC50: −log10 of the molar value.
recordedMetric: pIC50

[in] Could you share which pIC50 value was measured for C=CC(=O)N1CCCC(Nc2cc(Nc3ccc(Oc4ccccc4)cc3)ncn2)C1 (stereo not drawn) ?
[out] 7.00 to 8.00

[in] What about this compound? `C=CC(=O)Nc1cccc(Nc2cc(Nc3cccc(Br)c3)ncn2)c1`
[out] 7.00 to 8.00

[in] Same again, this time with `O=C(/C=C/CN1CCCC1)Nc1cccc(Nc2cc(Nc3ccc(F)c(Cl)c3)ncn2)c1`
[out] 7.00 to 8.00

[in] Now the compound `C#CCN(C)C/C=C/C(=O)Nc1cccc(Nc2cc(Nc3cccc(C)c3)ncn2)c1`
[out] 5.00 to 6.00

[in] // repeat for `C#Cc1cccc(Nc2cc(Nc3cccc(C#C)c3)ncn2)c1` and report
[out] ≤ 5.00

[in] Please do the same for `CN(C)C/C=C/C(=O)Nc1cccc(Nc2cc(Nc3ccccc3)ncn2)n1` as well.
[out] ≥ 8.00

[in] Consider next the compound `C=C(C)C(=O)c1cccc(Nc2cc(Nc3ccc(Oc4ccccc4)cc3)ncn2)c1` in the same way.
[out] ≥ 8.00

[in] Here is the next compound: `C=CC(=O)Nc1cccc(Nc2cc(Nc3ccc(Oc4ccccc4)cc3)ncn2)c1`
[out] ≥ 8.00

Shift focus to the following entry.
[in] Which pIC50 is reported for this compound? `C=CS(=O)(=O)Nc1cccc(Nc2cc(Nc3ccc(OCc4cccc(F)c4)c(Cl)c3)ncn2)c1`
[out] 7.00 to 8.00
